- Measured on: menin/MLL (terbium chelate-labeled menin, FITC-MBM1 peptide) (Homo sapiens, UniProt O00255, T541A)
- Construct: Menin (a.a 1-610-6xhis tag)
- Sequence (O00255 with tags, fused parts or gaps T541A): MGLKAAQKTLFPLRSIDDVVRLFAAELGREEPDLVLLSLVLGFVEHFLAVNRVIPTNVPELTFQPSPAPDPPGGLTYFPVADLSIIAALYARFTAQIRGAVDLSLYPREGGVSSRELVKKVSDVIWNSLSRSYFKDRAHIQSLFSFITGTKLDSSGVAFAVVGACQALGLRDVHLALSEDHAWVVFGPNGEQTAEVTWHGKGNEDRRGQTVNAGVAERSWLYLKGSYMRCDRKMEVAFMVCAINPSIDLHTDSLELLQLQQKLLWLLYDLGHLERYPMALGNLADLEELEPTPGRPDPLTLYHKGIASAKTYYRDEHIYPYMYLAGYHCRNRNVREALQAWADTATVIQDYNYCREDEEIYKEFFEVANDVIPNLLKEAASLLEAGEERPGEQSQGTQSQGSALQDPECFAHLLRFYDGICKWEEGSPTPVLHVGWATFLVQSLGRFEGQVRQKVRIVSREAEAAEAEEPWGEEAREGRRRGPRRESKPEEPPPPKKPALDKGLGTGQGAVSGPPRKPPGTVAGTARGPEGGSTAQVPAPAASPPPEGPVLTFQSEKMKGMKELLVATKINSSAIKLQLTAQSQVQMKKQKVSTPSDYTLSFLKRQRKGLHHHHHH
- Measurement notes: Menin/MLL homogenous time-resolved fluorescence (HTRF) assay
- Applied conditions: 30 min incubation
So basically, if IC50 comes in under 500 pM it's Met, and if it's 500 pM or more it's Not met.

Does the reported IC50 of CC(C)[C@H]([C@H]1C[C@@H](N2CCC3(CCO3)CC2)C1)N1CC2(CCN(c3ncnnc3Oc3ccc(F)cc3-c3nnccc3C3CC3)C2)C1 (single isomer, unassigned) stay below 500 pM? Not met

Hello, I'm reviewing records and need to know if IC50 of CNC(=O)c1nnc(N[C@H]2C[C@@H]([C@@H](C(C)C)N3CC4(CCN(c5ncnnc5Oc5ccc(F)cc5-c5cncnc5C5CC5)C4)C3)C2)o1 (single isomer, unassigned) is below 500 pM. Could you check? Met

Quick check: IC50 of CC(C)[C@H]([C@H]1C[C@@H](Nc2ncc(C(=O)N(C)C)o2)C1)N1CC2(CCN(c3ncnnc3Oc3ccc(F)cc3-c3cncnc3C3CC3)C2)C1 (single isomer, unassigned) under 500 pM? Met

Consider the molecule CC(C)[C@H]([C@H]1C[C@H](N2CC3(COC3)C2)C1)N1CC2(CCN(c3ncnnc3Oc3ccc(F)cc3-c3cnncc3C3CC3)C2)C1 (single isomer, unassigned) . Is its IC50 strictly less than 500 pM? Not met
